Test system: Rhizopus arrhizus
assay method text: Antifungal activity against Rhizopus oryzae
Assay type: functional
A collection of compounds and their measured MFC
Lab book: enter the figure in µg/mL, no units written.

CC[C@@H]([C@H](C)O)n1ncn(-c2ccc(N3CCN(c4ccc(OC[C@@H]5CO[C@@](Cn6cncn6)(c6ccc(F)cc6F)C5)cc4)CC3)cc2)c1=O [POSACONAZOLE]: 2

Moving on to the next compound.
Request the reported MFC associated with C[C@@H]1[C@H](O)[C@@H](C)/C=C/C=C/C=C/C=C/C=C/C=C/C=C/[C@H](O[C@@H]2O[C@H](C)[C@@H](O)[C@H](N)[C@@H]2O)C[C@@H]2O[C@](O)(C[C@@H](O)C[C@@H](O)[C@H](O)CC[C@@H](O)C[C@@H](O)CC(=O)O[C@H]1C)C[C@H](O)[C@H]2C(=O)O [AMPHOTERICIN B]
4
